PROCEDURE TEXT: Gelation experiments: inversion test for self-supporting hydrogels
Type: physicochemical
PARTICULARS: in water; final concentrations 1, 2 and 4 weight percent tested
MEASURED QUANTITY: Gelation (self-supporting gel on inversion), Water

[
  {
    "COMPOUND": "CCCCCCCCCCCCCCCC(=O)NC(C(=O)NCC(=O)N[C@@H](Cc1ccccc1)C(=O)NCC(=O)N[C@@H](Cc1ccccc1)C(=O)NCC(=O)N[C@@H](Cc1ccccc1)C(=O)NCC(=O)N[C@@H](CCC(N)=O)C(=O)NCC(=O)N[C@@H](CO)C(=O)O)C(=O)NCC(=O)N[C@@H](Cc1ccccc1)C(=O)NCC(=O)N[C@@H](Cc1ccccc1)C(=O)NCC(=O)N[C@@H](Cc1ccccc1)C(=O)NCC(=O)N[C@@H](CCC(N)=O)C(=O)NCC(=O)N[C@@H](CO)C(=O)O [Gly-Phe-Gly-Phe-Gly-Phe-Gly-Gln-Gly-Ser]",
    "RESULT": "No"
  }
]
